Entries and their Kd values follow.
- SYSTEM: T1, denatured bovine pancreatic Ribonuclease B (bovine, UniProt P61823 27-150)
- T1 construct: mature; also called dRNase B; denatured RNase B
- T1 sequence: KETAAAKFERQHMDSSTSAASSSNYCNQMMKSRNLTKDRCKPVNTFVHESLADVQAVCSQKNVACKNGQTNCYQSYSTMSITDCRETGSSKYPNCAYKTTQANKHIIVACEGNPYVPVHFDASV
- ASSAY_SUMMARY: SPR (Biacore 3000), dRNase B immobilised on CM5, steady state
ATTRIBUTE_MEASURED: Kd

BINDER: PNGase F clone R911 (D57L, D60C, I156L, G192I, E206S, R248W) (designed binder) GIPAPADNTVNIKTFDKVKNAFGDGLSQSAEGTFTFPADVTAVKTIKMFIKNECPNKTCLEWCRYANVYVKNKTTGEWYEIGRFITPYWVGTEKLPRGLEIDVTDFKSLLSGNTELKIYTETWLAKGREYSVDFDIVYGTPDYKYSAVVPVVQYNKSSLDGVPYGKAHTLALKKNIQLPTNTEKAYLRTTISGWIHAKPYDAGSRGCASWCFRTHTIAINNSNTFQHQLGALGCSANPINNQSPGNWTPDWAGWCPGMAVPTRIDVLNNSLIGSTFSYEYKFQNWTNNGTNGDAFYAISSFVIAKSNTPISAPVVTNLDPHHHHHH
RECORDED_MEASUREMENT: 260 nM
//
BINDER: PNGase F D60A single point mutant (enzyme, also called D60A control clone) GIPAPADNTVNIKTFDKVKNAFGDGLSQSAEGTFTFPADVTAVKTIKMFIKNECPNKTCDEWARYANVYVKNKTTGEWYEIGRFITPYWVGTEKLPRGLEIDVTDFKSLLSGNTELKIYTETWLAKGREYSVDFDIVYGTPDYKYSAVVPVVQYNKSSIDGVPYGKAHTLALKKNIQLPTNTEKAYLRTTISGWGHAKPYDAGSRGCAEWCFRTHTIAINNSNTFQHQLGALGCSANPINNQSPGNWTPDRAGWCPGMAVPTRIDVLNNSLIGSTFSYEYKFQNWTNNGTNGDAFYAISSFVIAKSNTPISAPVVTNLDPHHHHHH
RECORDED_MEASUREMENT: 2700 nM
//
BINDER: PNGase F clone R911 C60A (D57L, D60A, I156L, G192I, E206S, R248W) (designed binder) GIPAPADNTVNIKTFDKVKNAFGDGLSQSAEGTFTFPADVTAVKTIKMFIKNECPNKTCLEWARYANVYVKNKTTGEWYEIGRFITPYWVGTEKLPRGLEIDVTDFKSLLSGNTELKIYTETWLAKGREYSVDFDIVYGTPDYKYSAVVPVVQYNKSSLDGVPYGKAHTLALKKNIQLPTNTEKAYLRTTISGWIHAKPYDAGSRGCASWCFRTHTIAINNSNTFQHQLGALGCSANPINNQSPGNWTPDWAGWCPGMAVPTRIDVLNNSLIGSTFSYEYKFQNWTNNGTNGDAFYAISSFVIAKSNTPISAPVVTNLDPHHHHHH
RECORDED_MEASUREMENT: 2000 nM
//
BINDER: wild-type PNGase F from Flavobacterium meningosepticum (enzyme, also called wtPNGase F; 1PNF) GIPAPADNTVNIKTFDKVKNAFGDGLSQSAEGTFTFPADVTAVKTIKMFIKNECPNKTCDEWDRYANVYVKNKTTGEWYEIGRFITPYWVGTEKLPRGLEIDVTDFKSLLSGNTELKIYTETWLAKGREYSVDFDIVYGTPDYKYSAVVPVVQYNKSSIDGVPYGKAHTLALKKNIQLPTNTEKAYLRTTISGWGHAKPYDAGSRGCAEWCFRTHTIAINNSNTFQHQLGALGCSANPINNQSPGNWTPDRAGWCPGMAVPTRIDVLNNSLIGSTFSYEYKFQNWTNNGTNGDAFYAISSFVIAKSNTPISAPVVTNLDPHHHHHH
RECORDED_MEASUREMENT: 6400 nM
